# STUDY_SYSTEM: insulin receptor prepared according to Bass et al., 1996 (soluble IR) (human) (UniProt P06213)
# METHOD: phage ELISA; A405 on IR / A405 on non-fat milk
No end group written: not given here.
RESULT_TYPE: ratio over background (fold over background)
Respond using a number only.

### Prompt Input DYKDLSCLAYSRHGIWRPSTDLGLGRSVGEGSVSTRWRGYDWFEAAAGAP (peptide, not shown: large carriers) [40F-4-D1-IGFR] , output reported ratio over background (fold over background).
### Response 0.3

### Prompt Identify the reported ratio over background (fold over background) for the following entry. DYKDRCGDEEGWQENRRDDPFYHKLSELFGGCAAAGAP (peptide, not shown: large carriers) [B6Hα-3-E5-IR]
### Response 1

### Prompt Quick one: give measured ratio over background (fold over background) for DYKDCSMAAVAEAGDDDDPFYHKLSELCQGSAAAGAP (peptide, not shown: large carriers) [B6Hα-3-F1-IR]
### Response 1.3

### Prompt Return reported ratio over background (fold over background). Input binder: DYKDGLDHSDAVGVHLGFAWPAQARGRWEAGGLEDTWAGYDWLAAAGAP (peptide, not shown: large carriers) [40F-4-B1-IGFR]
### Response 0.2

### Prompt // Input: DYKDSSETAKMVTGTRDDPFYHKLSELVQGSAAAGAP (peptide, not shown: large carriers) [B6Hα-2-D8-IR] . Output its ratio over background (fold over background) only.
### Response 1

### Prompt Item DYKDCGAKMTGTPNDPFYHKLSELLQRGAAAGAP (peptide, not shown: large carriers) [B6Hα-3-E6-IR] : provide ratio over background (fold over background)
### Response 1.2

### Prompt Please supply the value of reported ratio over background (fold over background) for the item DYKDAGTPAQVGXNRLWSVWPGEHWNTVDPFYNKLSELLRESGAAAAGAP (peptide, not shown: large carriers, not fully specified; X: residue not identified in the source) [B6L-4-A7-IR]
### Response 1.9

### Prompt # return recorded ratio over background (fold over background) for entry DYKDQSGSGDFYDWLSRLIRGNGDGAAAGAP (peptide, not shown: large carriers) [20E2Bβ-3-C7-IR]
### Response 1.5

### Prompt Return value of ratio over background (fold over background) for input DYKDAETSAQVGWQRLWSVWPGDHWSTLDPFYHKLSELLRESGAAAAGAP (peptide, not shown: large carriers) [B6L-3-G5-IR] , no commentary.
### Response 1.4

### Prompt For the binder DYKDSRVAATKEKRPSDDPFYHKLSELLQGSAAAGAP (peptide, not shown: large carriers) [B6Hα-3-F7-IR] , report ratio over background (fold over background).
### Response 1

### Prompt Find the measured ratio over background (fold over background) of DYKDMNVFVSFYDAIDQLVCQRIGCAAAGAP (peptide, not shown: large carriers) [20E2A-4-G11-IGFR] and report it.
### Response 1.3

### Prompt Tell me ratio over background (fold over background) reported for DYKDVDTPAQVGWNRLWSVGPGEHWYTDDPFYHXLSELLRESGAAAAGAP (peptide, not shown: large carriers, not fully specified; X: residue not identified in the source) [B6L-3-G6-IR]
### Response 1.8

### Prompt Please indicate ratio over background (fold over background) recorded for DYKDGHYFGSFYDAIDQLVAGMLPGAAAGAP (peptide, not shown: large carriers) [20E2A-3-A3-IGFR]
### Response 1.5

### Prompt Output measured ratio over background (fold over background) for this item: DYKDGCITAENGAGDPFYHKLSELGGCSAAAGAP (peptide, not shown: large carriers) [B6Hα-1-B3-IR]
### Response 1.1

### Prompt Provide measured ratio over background (fold over background) value, entry: DYKDAGSVTSFYDAMEQLVATGTSAAAAGAP (peptide, not shown: large carriers) [20E2A-3-A4-IGFR]
### Response 1.8
